Some compounds, each annotated with its measured melting point.

Solved entries:
> print(dat)
                                 smilesrepr    resultvalue
1             S=C1N=NC(COc2cccc3cccnc23)=N1  187 to 189 °C
2  N#Cc1c(-c2ccc([N+](=O)[O-])cc2)nn(C(=O)COc2cccc3cccnc23)c1N  157 to 159 °C
3  N#Cc1c(-c2ccc(Cl)cc2)nn(C(=O)COc2cccc3cccnc23)c1N  163 to 165 °C

Let us examine a further case.
INPUT: # input compound: `N#Cc1c(-c2ccc([N+](=O)[O-])cc2)cc(N2C(=O)c3ccccc3C2=O)nc1N` ; wanted: its melting point
OUTPUT: 153 to 155 °C
